target: ASGPR (Homo sapiens); assay: Affinity to ASGPR by surface plasmon resonance (SPR)
pKd: −log10 of the molar value.
outcome-measure: pKd

Qu. Supply pKd value. Item: CC(C)C[C@@H]1NC(=O)[C@H](Cc2c[nH]cn2)NC(=O)[C@H](Cc2c[nH]c3ccccc23)NC(=O)[C@H](C)NC(=O)[C@@H]2CSSC[C@H](NC(=O)[C@H](Cc3c[nH]c4ccccc34)NC(=O)[C@H](C(C)C)NC(=O)[C@H](CC(C)C)NC(=O)[C@H](CCC(=O)O)NC(=O)CNC1=O)C(=O)N[C@@H]([C@@H](C)O)C(=O)N1CCC[C@@H]1C(=O)N1C[C@@H](NC(=O)c3ccc(N4CCC(CN5CCN(C[C@H]6OC[C@H](Nc7cncc(C(F)(F)F)n7)[C@@H](O)[C@H]6O)CC5)CC4)cc3)C[C@H]1C(=O)N[C@@H](CC(=O)O)C(=O)N2 [Compound 68]
Ans. > 7.00

Qu. Entry COC(=N)c1cc(OC)nc(N[C@H]2CO[C@H](CO)[C@H](O)[C@@H]2O)n1 [A48] needs its pKd filled in; supply it.
Ans. 5.00 to 6.00

Qu. Quick one: give measured pKd for O=C(CCOCC(COCCC(=O)NCCOCCOCCOCCOC[C@H]1OC[C@@H](Nc2nc(Cl)ns2)[C@@H](O)[C@H]1O)NC(=O)COCCOCCOCCNc1ccc([N+](=O)[O-])cc1[N+](=O)[O-])NCCOCCOCCOCCOC[C@H]1OC[C@@H](Nc2nc(Cl)ns2)[C@@H](O)[C@H]1O [Compound 28]
Ans. > 7.00

* * *

target: ASGPR (Homo sapiens, UniProt P07306); experiment: Affinity to ASGPR by surface plasmon resonance (SPR)
Sequence (P07306 whole entry): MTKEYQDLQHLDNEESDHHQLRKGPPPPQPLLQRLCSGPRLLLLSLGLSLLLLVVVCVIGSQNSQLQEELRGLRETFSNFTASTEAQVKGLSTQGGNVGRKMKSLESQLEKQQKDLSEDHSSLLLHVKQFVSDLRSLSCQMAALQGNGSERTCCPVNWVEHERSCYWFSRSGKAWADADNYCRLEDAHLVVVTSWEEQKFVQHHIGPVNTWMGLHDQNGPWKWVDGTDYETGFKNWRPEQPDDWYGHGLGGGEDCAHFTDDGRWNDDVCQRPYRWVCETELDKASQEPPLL
outcome-measure: Kd

Qu. Return reported Kd. Input compound: OCc1cn(C[C@H]2OC[C@H](Nc3nccc(C(F)(F)F)n3)[C@@H](O)[C@H]2O)nn1 [A68]
Ans. < 1 µM

Qu. Note down Kd recorded for OC[C@@]12CO[C@@H](O1)[C@H](Nc1nc(Cl)ncc1C(F)(F)F)[C@@H](O)[C@H]2O [A114]
Ans. < 1 µM

Qu. Look up and state reported Kd for Cc1cc(C#N)nc(N[C@H]2[C@H]3OC[C@](CO)(O3)[C@H](O)[C@@H]2O)n1 [A38]
Ans. 1 to 10 µM

Qu. Return Kd for the following compound: C=CCO[C@H]1O[C@H](Cn2ccnn2)[C@H](O)[C@H](O)[C@H]1Nc1nccc(C(F)(F)F)n1 [A69]
Ans. < 1 µM

Qu. Tell us which Kd value is on record for COc1cccc(N(C)C[C@H]2OC[C@H](Nc3cncc(C(F)(F)F)n3)[C@@H](O)[C@H]2O)c1 [A106]
Ans. < 1 µM

Qu. Item [N-]=[N+]=NCCOCCOCCOCCOC[C@H]1OC[C@H](Nc2cncc(C(F)(F)F)n2)[C@@H](O)[C@H]1O [A21] : provide Kd
Ans. 0.1 to 0.5 µM

Qu. Provide measured Kd value, entry: O=C(NC[C@H]1OC[C@H](Nc2cncc(C(F)(F)F)n2)[C@@H](O)[C@H]1O)[C@H]1C[C@H]1F [A108]
Ans. > 20 µM

Qu. Return the recorded Kd value; entry: CC(C)C[C@@H]1NC(=O)[C@H](Cc2cnc[nH]2)NC(=O)[C@H](Cc2c[nH]c3ccccc23)NC(=O)[C@H](C)NC(=O)[C@@H]2CSSC[C@H](NC(=O)[C@H](Cc3c[nH]c4ccccc34)NC(=O)[C@H](C(C)C)NC(=O)[C@H](CC(C)C)NC(=O)[C@H](CCC(=O)O)NC(=O)CNC1=O)C(=O)N[C@@H]([C@@H](C)O)C(=O)N1CCC[C@@H]1C(=O)N1C[C@@H](NC(=O)c3ccc(-c4ccc(C(=O)NC[C@H]5OC[C@H](Nc6cncc(C(F)(F)F)n6)[C@@H](O)[C@H]5O)cc4)cc3)C[C@H]1C(=O)N[C@@H](CC(=O)O)C(=O)N2 [Compound 72]
Ans. < 0.1 µM

* * *

molecular target: ASGPR (Homo sapiens, UniProt P07306); test: Affinity to ASGPR by surface plasmon resonance (SPR)
outcome-measure: Kd

Qu. State its Kd for this compound: NC(COCCC(=O)NCCOCCOCCOCCOC[C@H]1OC[C@H](Nc2nccc(C(F)(F)F)n2)[C@@H](O)[C@H]1O)COCCC(=O)NCCOCCOCCOCCOC[C@H]1OC[C@H](Nc2nccc(C(F)(F)F)n2)[C@@H](O)[C@H]1O
Ans. < 100 nM

Qu. Name the recorded Kd of the compound listed here: [N-]=[N+]=NCCCCCC(=O)NC(COCCC(=O)NCCOCCOCCOCCOC[C@@]12CO[C@@H](O1)[C@H](Nc1nc(Cl)ns1)[C@@H](O)[C@H]2O)COCCC(=O)NCCOCCOCCOCCOC[C@@]12CO[C@@H](O1)[C@H](Nc1nc(Cl)ns1)[C@@H](O)[C@H]2O
Ans. 100 to 500 nM

* * *

Could you please report measured Kd for the items listed next?
target: IgG; assay: Affinity to IgG by surface plasmon resonance (SPR); type: binding; details: Biacore 8K, 25° C., IgG on CM5 chip; read-out: IgG SPR Binding Kd
Where a SMILES comes first, the peptide text is derived from it. Bridges are numbered along the chain shown (N, C = ends). [ ]: non-standard residue; d: D form. Pro(4S-NH2) = N[C@@H]1CN[C@H](C(=O)O)C1

Qu. Answer with the recorded Kd for the compound listed here: C#CCCCC(=O)NCCOCCOCCOCCOCCNC(=O)CC[C@@H]1NC(=O)CNC(=O)[C@H](CC(C)C)NC(=O)[C@H](Cc2cnc[nH]2)NC(=O)[C@H](Cc2c[nH]c3ccccc23)NC(=O)[C@H](C)NC(=O)[C@@H](NC(=O)[C@@H](N)CC(=O)O)CSSC[C@@H](C(=O)N[C@H](C(N)=O)[C@@H](C)O)NC(=O)[C@H](Cc2c[nH]c3ccccc23)NC(=O)[C@H](C(C)C)NC(=O)[C@H](CC(C)C)NC1=O [Intermediate 2]
Ans. < 100 nM

Qu. // fetch Kd given entry CC(C)C[C@@H]1NC(=O)[C@H](C)NC(=O)CNC(=O)[C@H](CC(C)C)NC(=O)[C@H](Cc2cnc[nH]2)NC(=O)[C@H](Cc2c[nH]c3ccccc23)NC(=O)[C@H](C)NC(=O)[C@@H]2CSSC[C@H](NC(=O)[C@H](Cc3c[nH]c4ccccc34)NC(=O)[C@H](C(C)C)NC1=O)C(=O)N[C@@H]([C@@H](C)O)C(=O)N1CCC[C@@H]1C(=O)N1C[C@@H](N)C[C@H]1C(=O)N[C@@H](C)C(=O)N2 [Intermediate 25] (cyclo(ACAWHLGALVWCT[dP][Pro(4S-NH2)]); disulfide 2-12)
Ans. < 100 nM

Qu. Return Kd (reported value) for this compound: C#CCCCC(=O)NCCOCCOCCOCCOCCC(=O)N[C@H]1C[C@H]2C(=O)N[C@@H](CC(=O)O)C(=O)N[C@H]3CSSC[C@H](NC(=O)[C@H](Cc4c[nH]c5ccccc45)NC(=O)[C@H](C(C)C)NC(=O)[C@H](CC(C)C)NC(=O)[C@H](CCC(=O)O)NC(=O)CNC(=O)[C@H](CC(C)C)NC(=O)[C@H](Cc4cnc[nH]4)NC(=O)[C@H](Cc4c[nH]c5ccccc45)NC(=O)[C@H](C)NC3=O)C(=O)N[C@@H]([C@@H](C)O)C(=O)N3CCC[C@@H]3C(=O)N2C1 [Intermediate 4]
Ans. < 100 nM

Qu. Given C#CCCCC(=O)NCCOCCOCCC(=O)N[C@H]1C[C@H]2C(=O)N[C@@H](CC(=O)O)C(=O)N[C@H]3CSSC[C@H](NC(=O)[C@H](Cc4c[nH]c5ccccc45)NC(=O)[C@H](C(C)C)NC(=O)[C@H](CC(C)C)NC(=O)[C@H](CCC(=O)O)NC(=O)CNC(=O)[C@H](CC(C)C)NC(=O)[C@H](Cc4cnc[nH]4)NC(=O)[C@H](Cc4c[nH]c5ccccc45)NC(=O)[C@H](C)NC3=O)C(=O)N[C@@H]([C@@H](C)O)C(=O)N3CCC[C@@H]3C(=O)N2C1 [Intermediate 6] , respond with its Kd.
Ans. < 100 nM

Qu. Return value of Kd for input CC(C)C[C@@H]1NC(=O)[C@H](Cc2cnc[nH]2)NC(=O)[C@H](Cc2c[nH]c3ccccc23)NC(=O)[C@H](C)NC(=O)[C@@H]2CSSC[C@H](NC(=O)[C@H](Cc3c[nH]c4ccccc34)NC(=O)[C@H](C(C)C)NC(=O)[C@H](CC(C)C)NC(=O)[C@H](CCC(=O)O)NC(=O)CNC1=O)C(=O)N[C@@H]([C@@H](C)O)C(=O)N1CCC[C@@H]1C(=O)N1C[C@@H](N)C[C@H]1C(=O)N[C@@H](CC(=O)O)C(=O)N2 [Intermediate 5] , no commentary.
Ans. < 100 nM

Qu. Provide measured Kd value, entry: CC(C)C[C@@H]1NC(=O)[C@H](Cc2cnc[nH]2)NC(=O)[C@H](Cc2c[nH]c3ccccc23)NC(=O)[C@H](C)NC(=O)[C@@H]2CSSC[C@H](NC(=O)[C@H](Cc3c[nH]c4cc(Cl)ccc34)NC(=O)[C@H](C(C)C)NC(=O)[C@H](CC(C)C)NC(=O)[C@H](CCC(=O)O)NC(=O)CNC1=O)C(=O)N[C@@H]([C@@H](C)O)C(=O)N1CCC[C@@H]1C(=O)N1C[C@@H](N)C[C@H]1C(=O)N[C@@H](CC(=O)O)C(=O)N2 [Intermediate 19]
Ans. < 100 nM

Qu. Please report the measured Kd for CC(C)C[C@@H]1NC(=O)[C@H](Cc2cnc[nH]2)NC(=O)[C@H](Cc2c[nH]c3ccccc23)NC(=O)[C@H](C)NC(=O)[C@@H]2CSSC[C@H](NC(=O)[C@H](Cc3c[nH]c4ccccc34)NC(=O)[C@H](C(C)C)NC(=O)[C@H](CC(C)C)NC(=O)[C@H](CCC(=O)O)NC(=O)CNC1=O)C(=O)N[C@@H]([C@@H](C)O)C(=O)N1CCC[C@@H]1C(=O)N1C[C@@H](N)C[C@H]1C(=O)N[C@@H](C)C(=O)N2 [Intermediate 12]
Ans. < 100 nM

Qu. Item CC(C)C[C@@H]1NC(=O)[C@H](Cc2cnc[nH]2)NC(=O)[C@H](Cc2c[nH]c3ccccc23)NC(=O)[C@H](C)NC(=O)[C@@H]2CSSC[C@H](NC(=O)[C@H](Cc3c[nH]c4ccc(Cl)cc34)NC(=O)[C@H](C(C)C)NC(=O)[C@H](CC(C)C)NC(=O)[C@H](CCC(=O)O)NC(=O)CNC1=O)C(=O)N[C@@H]([C@@H](C)O)C(=O)N1CCC[C@@H]1C(=O)N1C[C@@H](N)C[C@H]1C(=O)N[C@@H](CC(=O)O)C(=O)N2 [Intermediate 29] : provide Kd
Ans. < 100 nM

Qu. Please give the documented Kd of CC(C)C[C@@H]1NC(=O)[C@H](Cc2cnc[nH]2)NC(=O)[C@H](Cc2c[nH]c3ccccc23)NC(=O)[C@H](C)NC(=O)[C@@H]2CSSC[C@H](NC(=O)[C@H](Cc3c[nH]c4ccccc34)NC(=O)[C@H](C(C)C)NC(=O)[C@H](CC(C)C)NC(=O)[C@H](CCC(=O)O)NC(=O)CNC1=O)C(=O)N[C@@H]([C@@H](C)O)C(=O)N1CCC[C@@H]1C(=O)N1C[C@@H](NC(=O)COCCOCCOCCOC[C@H]3OC[C@H](Nc4nccc(C(F)(F)F)n4)[C@@H](O)[C@H]3O)C[C@H]1C(=O)N[C@@H](CC(=O)O)C(=O)N2 [Compound 60]
Ans. < 100 nM
